Tested on: K562 cell line
Test: Proliferation assay in K562 cell line (CellTiterGlo, 72 hour)
Type: cell-based
Settings: Homo sapiens, K562 cells
Below, each of the molecules is paired with its reported IC50 value.
measuredMetric: IC50

CN(C)c1cc(NC(=O)CNC(C)(C)C)c(O)c2c1C[C@H]1C[C@H]3[C@H](N(C)C)C(O)=C(C(N)=O)C(=O)[C@@]3(O)C(O)=C1C2=O [Tigecycline, tigecycline, reference compound]    7.2 µM
CCN1CCC[C@H]1c1cc(O)c2c(c1OC)C[C@H]1C[C@H]3[C@H](N)C(O)=C(C(N)=O)C(=O)[C@@]3(O)C(O)=C1C2=O    0.11 µM
CCN[C@@H]1C(O)=C(C(N)=O)C(=O)[C@@]2(O)C(O)=C3C(=O)c4c(O)cc([C@@H]5CCCN5CC)c(OC)c4C[C@H]3C[C@@H]12 (single isomer, unassigned)    0.13 µM
NC(=O)C1=C(O)[C@@H](N)[C@@H]2C[C@@H]3Cc4c(F)cc(NC(=O)CN5CCCC5)c(O)c4C(=O)C3=C(O)[C@]2(O)C1=O    0.16 µM

---

System: mitochondrial protein synthesis
Assay: Intact isolated rat heart mitochondrial protein synthesis assay ([S35]-methionine incorporation)
Type: biochemical
Settings: isolated rat heart mitochondria, 0.15 to 40 μM; read-out: dose-response curve IC50, mitochondrial protein synthesis
measuredMetric: IC50 (nM)

CCN1CCC[C@H]1c1cc(O)c2c(c1OC)C[C@H]1C[C@H]3[C@H](N)C(O)=C(C(N)=O)C(=O)[C@@]3(O)C(O)=C1C2=O    700

Where do the numbers come from? From patent US20230031954A1.
